Exercise: for every item that follows, state its recorded pKd.
Target: T1, recombinant endoglin (UniProt P17813 26-586, limits assumed)
T1 sequence (looked up): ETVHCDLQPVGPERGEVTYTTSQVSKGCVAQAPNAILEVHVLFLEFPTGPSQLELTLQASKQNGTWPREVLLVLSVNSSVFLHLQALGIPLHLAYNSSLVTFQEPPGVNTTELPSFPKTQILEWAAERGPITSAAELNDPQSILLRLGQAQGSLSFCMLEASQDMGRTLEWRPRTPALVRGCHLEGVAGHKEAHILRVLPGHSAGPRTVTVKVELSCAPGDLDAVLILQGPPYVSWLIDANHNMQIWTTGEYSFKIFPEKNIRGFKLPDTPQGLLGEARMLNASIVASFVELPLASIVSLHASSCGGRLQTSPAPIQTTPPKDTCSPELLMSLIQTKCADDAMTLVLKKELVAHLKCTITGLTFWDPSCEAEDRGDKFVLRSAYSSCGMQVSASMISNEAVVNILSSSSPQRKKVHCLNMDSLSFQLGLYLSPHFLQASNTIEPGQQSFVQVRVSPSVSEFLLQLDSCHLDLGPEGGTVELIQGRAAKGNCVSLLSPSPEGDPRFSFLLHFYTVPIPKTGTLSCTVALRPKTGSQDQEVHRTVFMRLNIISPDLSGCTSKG
Assay: BIAcore SPR, antibody captured on protein A chip, recombinant endoglin as analyte, 25 C
Reminder that pKd means the negative base-10 logarithm of the concentration expressed in mol/L.

Prompt: Could you share which pKd value was measured for chimeric anti-CD105 antibody TRC105 (antibody, V domains shown, Chimeric monoclonal antibody with the murine SN6j variable regions; also called chimeric anti-endoglin antibody; c-SN6j) VH: EVKLEESGGGLVQPGGSMKLSCAASGFTFSDAWMDWVRQSPEKGLEWVAEIRSKASNHATYYAESVKGRFTISRDDSKSSVYLQMNSLRAEDTGIYYCTRWRRFFDSWGQGTTLTVSS VL: QIVLSQSPAILSASPGEKVTMTCRASSSVSYMHWYQQKPGSSPKPWIYATSNLASGVPVRFSGSGSGTSYSLTISRVEAEDAATYYCQQWSSNPLTFGAGTKLELK ?
Response: 9.22

Prompt: Same question, VK1AAVH1R (antibody, V domains shown, IgG1 heavy chain, kappa light chain) VH: EVQLVESGGGLVKPGGSLRLSCAASGFTFSDAWMDWVRQAPGKGLEWVGEIRSRASNHATYYAESVKGRFTISRDDSKNTLYLQMNSLKTEDTAVYYCTRWRRFFDSWGQGTLVTVSS VL: DIQMTQSPSSLSASVGDRATITCRASSSVSYMHWYQQKPGKAPKPWAYATSNLASGVPSRFSGSGSGTDYTLTISSLQPEDFATYYCQQWSSNPLTFGGGTKVEIK this time
Response: 9.27

Prompt: What about VK1AAVH1Q (antibody, V domains shown, IgG1 heavy chain, kappa light chain) VH: EVQLVESGGGLVKPGGSLRLSCAASGFTFSDAWMDWVRQAPGKGLEWVGEIRSQASNHATYYAESVKGRFTISRDDSKNTLYLQMNSLKTEDTAVYYCTRWRRFFDSWGQGTLVTVSS VL: DIQMTQSPSSLSASVGDRATITCRASSSVSYMHWYQQKPGKAPKPWAYATSNLASGVPSRFSGSGSGTDYTLTISSLQPEDFATYYCQQWSSNPLTFGGGTKVEIK ?
Response: 9.07

Prompt: Also need VK1AAVH1A2 (antibody, V domains shown, IgG1 heavy chain, kappa light chain; also called humanized/deimmunized anti-endoglin antibody VK1AAVH1A2) VH: EVQLVESGGGLVKPGGSLRLSCAASGFTFSDAWMDWVRQAPGKGLEWVGEARSKASNHATYYAESVKGRFTISRDDSKNTLYLQMNSLKTEDTAVYYCTRWRRFFDSWGQGTLVTVSS VL: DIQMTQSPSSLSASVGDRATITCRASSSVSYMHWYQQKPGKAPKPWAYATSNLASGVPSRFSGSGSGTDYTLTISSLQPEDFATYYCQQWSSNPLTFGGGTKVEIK , thanks.
Response: 9.15
